# System: IGROV1 ovarian
# test.details: NCI-60 one-dose screen, 48 h
# assay.conditions: 10 µM unless noted
This is part of a sample that, as a whole, favours compounds with a hit. Of some 83,000 tested, about 20% had one in any assay. Activity calls are given as the source filed them. Rule for the calls: active = growth percent below 10; inactive = the rest.
Please state which outcome applies, choosing from active, inactive

Some entries whose results are on file:
1. Cc1[nH]c(-c2nc3ccccc3[nH]2)c(C)c1C(=O)NNc1ccc(Cl)cc1 ... inactive
2. CC(C)c1ccc(NC(=O)Cc2ccc(Nc3ncnc4cc(-c5cnn(CCN(C)C)c5)ccc34)cc2)cc1 ... active
3. CC[C@]1(O)C[C@H]2CN(CCc3c([nH]c4ccccc34)[C@@](C(=O)OC)(c3cc4c(cc3OC)N(C=O)[C@H]3[C@@](O)(C(=O)OC)[C@H](OC(C)=O)[C@]5(CC)C=CCN6CC[C@]43[C@@H]65)C2)C1 ... active
4. COC(=O)/C(=C\c1ccc(OC)cc1)C(=O)N1c2ccccc2Sc2ccccc21 ... inactive

# input for lookup
Prompt line: What outcome does the record of this test show for COc1cc(-c2ccc(-c3ccc(C(=N)N)nc3)s2)cc(OC)c1OC ?
Response line: inactive

Values compiled from PubChem BioAssay (NCI).
